Target: T1, recombinant human activated Factor VII (FVIIa) (human, UniProt P08709 61-212; P08709 213-466, ten glutamate residues of the Gla domain may be gamma-carboxylated)
T1 construct: chains tethered by a disulfide bond; also called Factor VIIa; rFVIIa
T1 sequence 1: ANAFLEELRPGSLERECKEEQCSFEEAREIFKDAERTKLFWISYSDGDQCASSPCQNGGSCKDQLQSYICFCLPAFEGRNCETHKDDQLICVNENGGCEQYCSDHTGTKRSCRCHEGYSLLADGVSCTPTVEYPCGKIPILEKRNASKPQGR
T1 sequence 2: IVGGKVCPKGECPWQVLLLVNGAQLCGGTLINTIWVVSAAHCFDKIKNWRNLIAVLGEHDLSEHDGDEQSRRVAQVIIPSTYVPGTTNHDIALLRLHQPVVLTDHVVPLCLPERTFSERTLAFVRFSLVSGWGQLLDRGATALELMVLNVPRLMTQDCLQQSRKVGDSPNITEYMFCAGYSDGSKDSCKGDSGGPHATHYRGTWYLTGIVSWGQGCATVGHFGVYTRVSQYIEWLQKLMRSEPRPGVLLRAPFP
Test: BLI (Fortebio)
pKd: −log10 of the molar value.
READOUT KIND: pKd

BINDER: VH SEQ ID NO 514 / VL SEQ ID NO 334 (antibody, IgG4, V domains shown, humanized 11F2; IgG4 S228P/kappa) VH: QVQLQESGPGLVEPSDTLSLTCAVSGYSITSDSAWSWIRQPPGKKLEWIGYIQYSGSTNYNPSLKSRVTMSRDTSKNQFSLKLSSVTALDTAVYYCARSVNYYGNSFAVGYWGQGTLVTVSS VL: EIVLTQSPATLSLSPGERATLSCRASQGISDYLHWYQQKPGQAPRLLIKYASQPATGIPARFSGSGSGTDFTLTISSLEPEDFAVYYCQNGHSFPLTFGQGTKLEIK
READOUT KIND: pKd
MEASUREMENT: 8.96
//
BINDER: VH SEQ ID NO 578 / VL SEQ ID NO 478 (antibody, IgG4, V domains shown, humanized 11F2; IgG4 S228P/kappa) VH: QVQLQESGPGLVKPSDTLSLTCAVSGYSISSDSAWSWIRQPPGKGLEWIGYIQYSGSTNYNPSLKSRVTMSVDTSKNQFSLKLSSVTALDTAVYYCARSVNYYGNSFAVGPWGQGTLVTVSS VL: EIVLTQSPATLSLSPGERATLSCRASQGVSDYLHWYQQKPGQAPRLLIKYASQPATGIPARFSGSGSGTDFTLTISSLEPEDFAVYYCQQGHSFPLTFGQGTKLEIK
READOUT KIND: pKd
MEASUREMENT: 6.51
//
BINDER: VH SEQ ID NO 626 / VL SEQ ID NO 342 (antibody, IgG4, V domains shown, humanized 11F2; IgG4 S228P/kappa) VH: QVQLQESGPGLVKPSQTLSLTCTVSGYSISSDSAWSWIRQPPGKGLEWIGYIQYSGSTNYNPSLKSRVTISRDTSKNQFSLKLSSVTAADTAVYYCARSVNYYGNSFAVGPWGQGTLVTVSS VL: EIVLTQSPATLSLSPGERATLSCRASQGISDYLHWYQQKPGQAPRLLIKYTSQPATGIPARFSGSGSGRDFTLTISSLEPEDFAVYYCQNGHSFPLTFGAGTKLELK
READOUT KIND: pKd
MEASUREMENT: 9.07
